Assay: chemical genetic growth profiling, strain panel (AID 1159580);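 note: tested at 20 µM; growth read once vehicle control cultures reached saturation at 30 °C; 1 = growth at the plate median or of vehicle wells; lower values mean less growth of the strain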
Settings: S. cerevisiae deletion strains, growth OD, locus YDL101C, strain DUN1, active compounds read low
About 2,000 (36%) of roughly 5,500 compounds were called active. About 18% were inconclusive and are not listed. This is one part of the list.
The label Condition met is reserved for normalized growth strictly under 1; Condition not met covers values equal to or above it.

>  <Molecule>
COc1ccc2c(c1)CCC1C2CC[C@@]2(C)C1CC[C@@H]2O (some centres undefined)

>  <Class Assignment>
Condition met

$$$$
>  <Molecule>
N#Cc1ccc(-c2csc(-c3ccc(Oc4ccc(C(F)(F)F)cn4)cc3)n2)cc1

>  <Class Assignment>
Condition not met

$$$$
>  <Molecule>
Cc1cc(Cl)ccc1NNC(=O)c1sccc1Br

>  <Class Assignment>
Condition met

$$$$
>  <Molecule>
O=C(NNc1ccc(F)cc1F)c1sccc1Cl

>  <Class Assignment>
Condition met

$$$$
>  <Molecule>
Cc1cc(Cl)ccc1NNC(=O)c1sccc1Cl

>  <Class Assignment>
Condition met

$$$$

---

Assay: chemical genetic growth profiling, strain panel (AID 1159580);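 note: tested at 20 µM; growth read once vehicle control cultures reached saturation at 30 °C; 1 = growth at the plate median or of vehicle wells; lower values mean less growth of the strain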
Details: S. cerevisiae deletion strains, growth OD, locus YLR268W, strain sec22, active compounds read low
Hit rate of the full screen: of about 5,500 compounds, about 2,000 (36%) were called active. Another 18% or so got no clear call; they are omitted. Some of the results follow.

>  <Molecule>
CC(C)N(CCC(C(N)=O)(c1ccccc1)c1ccccn1)C(C)C (stereo unspecified)

>  <normalized growth>
0.999

$$$$
>  <Molecule>
CC(C)c1c(O)c(-c2cc3c(c(C(C)C)c2O)CCC2C(C)(C)CCC[C@]32C)cc2c1CCC1C(C)(C)CCC[C@]21C (stereo partly specified)

>  <normalized growth>
1.01

$$$$
>  <Molecule>
CC(C)[N+](C)(CCC(C(N)=O)(c1ccccc1)c1ccccc1)C(C)C

>  <normalized growth>
0.987

$$$$
>  <Molecule>
C[C@]12CCC3c4ccc(O)cc4CCC3C1C[C@@H](O)[C@@H]2O (stereo partly specified)

>  <normalized growth>
0.987

$$$$
>  <Molecule>
COc1ccc2c(c1C(C)C)CCC1C(C)(C)C(=O)CCC21C (stereo unspecified)

>  <normalized growth>
0.995

$$$$
>  <Molecule>
C[C@]12CCC3c4ccc(OS(=O)(=O)O)cc4CCC3C1CC[C@H]2O (stereo partly specified)

>  <normalized growth>
0.973

$$$$

---

Below, each entry is listed with its recorded normalized growth.
Test: chemical genetic growth profiling, strain panel (AID 1159580);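 note: tested at 20 µM; growth read once vehicle control cultures reached saturation at 30 °C; 1 = growth at the plate median or of vehicle wells; lower values mean less growth of the strain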
Conditions: S. cerevisiae deletion strains, growth OD, locus YDL005C, strain med2, active compounds read low
Out of some 5,500 compounds screened, about 2,000 (36%) were called active. Not shown: some 18% with an inconclusive outcome. This is one part of the list.
Quantity: normalized growth

>  <Compound>
COc1ccc2c(c1)CCC1C2CC[C@@]2(C)C1CC[C@@H]2O (some centres not stated)

>  <Recorded Result>
0.983

$$$$
>  <Compound>
NC(=O)CN1CCCC1=O

>  <Recorded Result>
0.996

$$$$
>  <Compound>
CNC(=O)Oc1cccc2c1OC(C)(C)O2

>  <Recorded Result>
0.996

$$$$
>  <Compound>
NC(=O)c1ncn([C@@H]2O[C@H](CO)[C@@H](O)[C@H]2O)n1

>  <Recorded Result>
0.982

$$$$
>  <Compound>
C=CC1C2=CCOC(=O)C2=COC1OC1OC(CO)C(O)C(O)C1O (configuration not stated)

>  <Recorded Result>
1.01

$$$$
>  <Compound>
CC(CC(O)C1OC1(C)C)[C@@H]1CCC2(C)C3=CCC4C(C)(C)C(=O)CCC4(C)C3CC[C@@]12C (some centres not stated)

>  <Recorded Result>
1.01

$$$$
>  <Compound>
CN[C@@H]1C(O)[C@@H](O[C@@H]2[C@@H](O)[C@H](O[C@H]3OC(CN)=CC[C@H]3N)[C@@H](N)C[C@H]2N)OC[C@]1(C)O (some centres not stated)

>  <Recorded Result>
1.01

$$$$

Recorded values, source PubChem BioAssay AID1159580.
